- System: M14 melanoma
- method: NCI-60 one-dose screen, 48 h (100 = growth as untreated, 0 = no growth, -100 = all killed)
- run_parameters: 10 µM unless noted
About 83,000 compounds went through this panel and 20% of them were active in at least one assay; those are over-represented in the sample as a whole.
Each record here notes measured growth.
Provide the reading as a plain figure in %.

C[C@]12CC[C@@H]3c4cc(OC(F)F)c(OS(N)(=O)=O)cc4CC[C@H]3[C@@H]1CC[C@@H]2OS(N)(=O)=O | 31.1
O=C1/C(=C/c2ccc(F)cc2)Sc2c(Br)cccc21 | 92.8
CNCCCNc1nc2ccccc2c2c(=O)c3cc(OC)ccc3sc12 | 29.9
O=c1[nH][n+](-c2ccc(Br)cc2)no1 | 74
N#Cc1c(Nc2cccc(Cl)c2)sc(C(=O)c2cc3cc(Cl)ccc3o2)c1N | 105

So, C/C(=C\C(=O)c1ccc(Cl)cc1)c1ccc(Cl)cc1 ? Its growth was 104

So, Cc1ccc(C(CC(=O)O)c2c(C)[nH][nH]c2=O)cc1 (configuration not stated) ? Its growth was 96.7

So, COc1cc(CCC[P+](c2ccccc2)(c2ccccc2)c2ccccc2)c(OC)c(OC)c1OC ? Its growth was 62

So, BrCCCc1n(Cc2ccc3ccccc3c2)c2ccccc2[n+]1Cc1ccc2ccccc2c1 ? Its growth was -60.4

So, O=C(/C=C/c1sc(Cl)nc1Cl)c1ccc(F)cc1 ? Its growth was 78.4

So, Cc1cc(N2CCCC2)nc(N(CCCNc2ccnc3cc(Cl)ccc23)Cc2ccccn2)n1 ? Its growth was -15.9

So, NCCNc1nc2ccccc2c2c(=O)c3cc(F)ccc3sc12 ? Its growth was 77.4

So, CCc1cccc2c3c(sc12)C(c1ccc(F)cc1)C(C#N)=C(N)O3 (configuration not stated) ? Its growth was 19.2

====

- System: U251 CNS
- method: NCI-60 one-dose screen, 48 h (100 = growth as untreated, 0 = no growth, -100 = all killed)
- run_parameters: 10 µM unless noted
Compounds without any hit were thinned out: in the full panel of roughly 83,000, 20% have a hit.
Simple rule here: growth less than 30% is Yes, otherwise No.

COc1cc(CCC[P+](c2ccccc2)(c2ccccc2)c2ccccc2)c(OC)c2c1OCO2 | Yes
CCCCC[C@H](O)C/C=C1/C(=O)C=C[C@@H]1C/C=C\CCCC(=O)O | No
N#Cc1ccc(NC(=O)c2sc3nc4c(cc3c2N)C(=O)CCC4)cc1 | No

Lab note: next compound to report on.
-- ask Problem: For the compound O=c1c2cccc(Cl)c2sc2c(NCCCNCCO)nc3ccccc3c12 , is growth under 30%?
-- reply Yes

====

- Tested on: RXF 393 renal
- method: NCI-60 one-dose screen, 48 h
- run_parameters: 10 µM unless noted
- Protocol: Cells are grown in 96 well plates and exposed to the test compound for 48 hours. Compounds are tested at a single concentration, which is 10^-5 M for most compounds. The reported endpoint is percent growth (GI% or GIPRCNT), where numbers from 0 - 100% represent growth inhibition, and numbers from -100% - 0 represent cell death. For example, a value of 40 represents 60% growth inhibition. A value of 0 means no net growth occurred over the course of the experiment. […]
Compounds without any hit were thinned out: in the full panel of roughly 83,000, 20% have a hit. Calls of active or inactive are those of the source. Rule for the calls: active = growth percent below 10; inactive = the rest.
Assign a class; possible classes are Y for active, N for inactive

C=C1C(=O)O[C@H]2[C@H]1CC/C(COC(=O)CSCC(=O)OC/C1=C/CC[C@@]3(C)O[C@H]3[C@H]3OC(=O)C(=C)[C@@H]3CC1)=C\CC[C@@]1(C)O[C@@H]21 | Y
O=C(Nc1ccc(-c2nc(-c3cccc(OCCN4CCOCC4)c3)c(-c3ccnc(Br)c3)[nH]2)cc1)c1ccccc1 | Y
COc1cccc(Cc2cc(-c3ccccc3)nn(CC(=O)c3ccccc3)c2=O)c1 | N
CN(C)CCNc1nc2ccccc2c2c(=O)c3cc(F)ccc3sc12 | N
COc1cc(CCCO)c(OC)c(OC)c1OC | N

-- ask Record lookup: outcome of this test for Cc1ccc(C(=O)NCCNc2nccc(-c3c(-c4cccc(F)c4)nc4sccn34)n2)cc1 ?
-- reply N

-- ask Record lookup: outcome of this test for COc1cccc2c(=O)c3c(sc12)c(N1CCNCC1)nc1ccccc13 ?
-- reply N

-- ask Record lookup: outcome of this test for O=C1c2ccccc2NC(n2sc3ccccc3c2=O)N1c1ccccc1 (stereo not given) ?
-- reply N

Reference source: PubChem BioAssay (NCI)
